- TESTED ON: Epidermal growth factor receptor (Homo sapiens)
- Sequence (P00533 whole entry): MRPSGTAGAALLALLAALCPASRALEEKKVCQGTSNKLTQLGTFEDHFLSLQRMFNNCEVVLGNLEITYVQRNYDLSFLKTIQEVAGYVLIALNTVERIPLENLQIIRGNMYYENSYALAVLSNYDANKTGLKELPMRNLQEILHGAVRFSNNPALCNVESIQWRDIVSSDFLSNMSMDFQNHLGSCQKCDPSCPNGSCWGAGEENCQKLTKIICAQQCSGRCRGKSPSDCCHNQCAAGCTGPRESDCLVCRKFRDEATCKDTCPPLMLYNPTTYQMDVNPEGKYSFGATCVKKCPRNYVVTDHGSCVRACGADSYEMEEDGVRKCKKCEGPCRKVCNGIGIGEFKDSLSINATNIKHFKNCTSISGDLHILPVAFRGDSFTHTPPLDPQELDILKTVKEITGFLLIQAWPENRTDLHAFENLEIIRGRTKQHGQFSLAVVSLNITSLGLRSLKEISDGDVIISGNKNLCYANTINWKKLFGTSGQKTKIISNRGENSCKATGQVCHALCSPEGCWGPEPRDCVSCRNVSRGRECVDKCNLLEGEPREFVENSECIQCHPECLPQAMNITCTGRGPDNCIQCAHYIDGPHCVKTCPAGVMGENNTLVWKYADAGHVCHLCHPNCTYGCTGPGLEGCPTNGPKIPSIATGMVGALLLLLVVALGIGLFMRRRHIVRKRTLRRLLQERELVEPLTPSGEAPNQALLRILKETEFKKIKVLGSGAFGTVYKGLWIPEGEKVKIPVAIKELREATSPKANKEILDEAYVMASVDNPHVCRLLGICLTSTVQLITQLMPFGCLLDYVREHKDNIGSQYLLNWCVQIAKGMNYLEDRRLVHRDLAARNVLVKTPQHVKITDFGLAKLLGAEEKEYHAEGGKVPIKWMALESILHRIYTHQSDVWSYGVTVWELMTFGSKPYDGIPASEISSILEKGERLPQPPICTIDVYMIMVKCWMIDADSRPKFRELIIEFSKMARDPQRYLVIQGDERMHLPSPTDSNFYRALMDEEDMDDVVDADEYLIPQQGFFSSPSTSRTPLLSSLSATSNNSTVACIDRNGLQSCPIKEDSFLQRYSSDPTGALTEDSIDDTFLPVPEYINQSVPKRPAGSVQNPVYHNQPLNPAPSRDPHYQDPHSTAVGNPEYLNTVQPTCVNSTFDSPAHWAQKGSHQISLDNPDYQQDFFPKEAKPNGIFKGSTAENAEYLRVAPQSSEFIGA
- PROCEDURE DETAILS: Inhibition of recombinant EGFR by ELISA
pIC50: −log10 of the molar value.

[
  {
    "COMPOUND STRUCTURE STRING": "CCCCCCOc1cc2c(Nc3ccc(F)c(Cl)c3)ncnc2cc1OC",
    "TESTED ON": "Epidermal growth factor receptor (Homo sapiens)",
    "CENSORING OPERATOR": "=",
    "pIC50": 6.97
  },
  {
    "COMPOUND STRUCTURE STRING": "C#CCCCOc1cc2c(Nc3ccc(F)c(Cl)c3)ncnc2cc1OC",
    "TESTED ON": "Epidermal growth factor receptor (Homo sapiens)",
    "CENSORING OPERATOR": "=",
    "pIC50": 8.60
  },
  {
    "COMPOUND STRUCTURE STRING": "C#Cc1cc2c(Nc3ccc(F)c(Cl)c3)ncnc2cc1OC",
    "TESTED ON": "Epidermal growth factor receptor (Homo sapiens)",
    "CENSORING OPERATOR": "<",
    "pIC50": 6.00
  },
  {
    "COMPOUND STRUCTURE STRING": "C#CCOc1cc2c(Nc3cccc(Cl)c3)ncnc2cc1OC",
    "TESTED ON": "Epidermal growth factor receptor (Homo sapiens)",
    "CENSORING OPERATOR": "=",
    "pIC50": 7.59
  },
  {
    "COMPOUND STRUCTURE STRING": "C=CCCCCOc1cc2c(Nc3ccc(F)c(Cl)c3)ncnc2cc1OC",
    "TESTED ON": "Epidermal growth factor receptor (Homo sapiens)",
    "CENSORING OPERATOR": "=",
    "pIC50": 7.49
  },
  {
    "COMPOUND STRUCTURE STRING": "C#CCCCCCOc1cc2c(Nc3ccc(F)c(Cl)c3)ncnc2cc1OC",
    "TESTED ON": "Epidermal growth factor receptor (Homo sapiens)",
    "CENSORING OPERATOR": "=",
    "pIC50": 7.49
  },
  {
    "COMPOUND STRUCTURE STRING": "C#CCOc1cc2c(Nc3ccc(F)c(Cl)c3)ncnc2cc1OC",
    "TESTED ON": "Epidermal growth factor receptor (Homo sapiens)",
    "CENSORING OPERATOR": "=",
    "pIC50": 7.83
  },
  {
    "COMPOUND STRUCTURE STRING": "C#CCCCOc1cc2c(Nc3cccc(Cl)c3)ncnc2cc1OC",
    "TESTED ON": "Epidermal growth factor receptor (Homo sapiens)",
    "CENSORING OPERATOR": "=",
    "pIC50": 7.75
  }
]

All values here come from ChEMBL document CHEMBL1157709.
